Task for the reader: assign each of the following compounds its reported growth.
system: RXF 393 renal; test: NCI-60 one-dose screen, 48 h (100 = growth as untreated, 0 = no growth, -100 = all killed); settings: 10 µM unless noted
About 83,000 compounds went through this panel and 20% of them were active in at least one assay; those are over-represented in the sample as a whole.
Numbers only, in %.

Solved entries:
Asked: Request the reported growth associated with `COc1ccc(C(=S)N2CCN(c3cccc(Cl)c3)CC2)cc1`
Given back: 160

Asked: Item `O=C1/C(=C(/c2ccccc2)N2CCOCC2)Cc2ccccc21` has what recorded growth?
Given back: 42

Next, consider the following compound.
Asked: Record request: growth value, item COc1ccc(C2C(C#N)=C(N)Oc3n[nH]c(-c4cccs4)c32)cc1I (stereo not drawn)
Given back: 93.9

----------
tested on: HOP-62 NSCLC; assay: NCI-60 one-dose screen, 48 h; settings: 10 µM unless noted
The panel holds about 83,000 compounds, 20% with a hit somewhere; the sample as a whole holds those more often. Activity calls are given as the source filed them. The calls were made as follows: active = growth percent below 10; inactive = the rest.
Please state which outcome applies, choosing from active, inactive

Solved cases below.
Asked: Hi team, can someone confirm the assay call for `Cn1ncc2c(=O)nc3c(-c4ccccc4)n[nH]n3c21` ?
Given back: inactive

Asked: How did this test come out for `O=C(Nc1cccc2[nH]c(C(F)(F)F)nc12)c1ccc(-n2cnnn2)cc1` ?
Given back: inactive

Asked: For `COc1ccc(CN2c3ccccc3Oc3ccccc32)cc1F` , what call appears in the results of this test?
Given back: inactive

Asked: Which result was noted for this compound in the test: `CCc1nnc(CNc2ccc(Cl)cc2)o1`
Given back: inactive

Asked: Answer briefly: the call reported for CC[C@@H](C(=O)[C@@H](C)[C@@H](O)[C@H](C)[C@@H]1O[C@@H]([C@@H](CC)C(=O)O)CC[C@@H]1C)[C@H]1OC2(C=C[C@@H](O)[C@]3(CC[C@@](C)([C@H]4CC[C@](O)(CC)[C@H](C)O4)O3)O2)[C@H](C)C[C@@H]1C (some centres undefined) in this assay.
Given back: inactive

Asked: Which outcome did this test record for the compound `Cn1ccnc1C(=O)/C=C/c1ccccc1` ?
Given back: active

Asked: Outcome logged for `CC(C)n1c(/C=C/[C@@H](O)C[C@@H](O)CC(=O)O)c(-c2ccc(F)cc2)c2ccccc21` in this assay:
Given back: inactive

Asked: Called result for Cc1cc(N2CCN(C)CC2)nc(NC2CCCC(Nc3ccnc4cc(Cl)ccc34)C2)n1 (centres undefined)
Given back: active

API: the following record is the query input.
Asked: How did this test come out for `CCCCn1c(-c2ccc(C(=O)O/N=C(\N)c3ccc4c(c3)OCO4)cc2)nc(-c2ccccc2)c1-c1ccccc1` ?
Given back: inactive

----------
system: PC-3 prostate; assay: NCI-60 one-dose screen, 48 h; settings: 10 µM unless noted
About 83,000 compounds went through this panel and 20% of them were active in at least one assay; those are over-represented in the sample as a whole. Active and inactive are the calls of the source. The calls were made as follows: active = growth percent below 10; inactive = the rest.
Give your call using only these classes: active, inactive

Asked: Name the outcome recorded for `O=C(O)COc1ccc(Cl)cc1C1CCCCC1` in the assay.
Given back: inactive

Asked: Query: recorded result category for `COc1ccc(O)c(N=Nc2nccs2)c1` in this test
Given back: inactive

----------
tested on: SK-MEL-28 melanoma; test: NCI-60 one-dose screen, 48 h; settings: 10 µM unless noted
The panel holds about 83,000 compounds, 20% with a hit somewhere; the sample as a whole holds those more often. The source made the active and inactive calls. How the source made its calls: active means growth percent below 10; inactive means the rest.
Result category, one only: class 1 for active, class 0 for inactive

Asked: Dear all, I need the recorded test outcome for `CC(=O)c1cc2c(N)c(C(=O)Nc3cccc4ccccc34)sc2nc1C` , thank you.
Given back: class 0

---
Asked: Hi team, can someone confirm the assay call for `COc1ccc(/C=C/c2nc(-c3n[nH]c(=O)n3-c3ccccc3)c3ccccc3n2)cc1` ?
Given back: class 0

Asked: State the result this test recorded for `O=C(O)COc1ccc(Cl)cc1C1CCCCC1` .
Given back: class 0

Asked: How was `Cc1c(/C=C/[N+](=O)[O-])ccc2c1[nH]c1ccccc12` classified in this test?
Given back: class 0

Asked: For `O=C(COc1ccc(-c2nc3cc(Cl)c(Cl)cc3[nH]2)cc1)N=Nc1c(O)[nH]c2ccccc12` , what call appears in the results of this test?
Given back: class 1

Asked: For this compound, state the assay outcome: `CCCc1cc(=O)n2c(C(=O)Nc3cccc(C(=O)OCC)c3)c(C(=O)Nc3ccc(F)cc3)sc2n1`
Given back: class 0

Asked: Name the outcome recorded for CCC([N+](=O)[O-])S(=O)(=O)c1ccc(C)cc1 (stereo not given) in the assay.
Given back: class 0

Asked: Write down the call the test reported for this compound. Item: `CC(=O)c1cc2c(N)c(C(=O)Nc3ccccc3)sc2nc1C`
Given back: class 0

Asked: Hi, sorry to bother you, what did the test record for CN1C(=O)C2(SCC(C(=O)NCc3ccccc3)N2C(=O)C2CCCCC2)c2ccccc21 (stereo not given) ?
Given back: class 0

Asked: Which outcome was entered for the compound `COc1cc(-c2nn(C)nc2-c2cc3ccccc3s2)cc(OC)c1OC` in this test?
Given back: class 0
